Values from patent US20070043064A1

Biological target: α2-GABAA receptor (Rattus norvegicus, UniProt P18508+P23576)
Test: Ligand-binding assay, radiolabeled flumazenil competition, spinal cord membranes
Conditions: compound at 10^−5M
MEASUREMENT TYPE: inhibition at 10 µM
The reply must contain the numeric value and, after it, the unit.

>  <MOLECULE>
O=[N+]([O-])c1cnn2c(-c3cccc(N4CCCS4(=O)=O)c3)ccnc12 [Example 34]

>  <inhibition at 10 µM>
86.9%

$$$$
>  <MOLECULE>
C#CCN(c1cccc(-c2ccnc3c([N+](=O)[O-])cnn23)c1)S(=O)(=O)C(C)C [Example 31]

>  <inhibition at 10 µM>
81.3%

$$$$
>  <MOLECULE>
CCN(C(C)=O)c1cccc(-c2ccnc3c(C#N)cnn23)c1 [Zaleplon, zaleplon, reference compound]

>  <inhibition at 10 µM>
78.4%

$$$$

Prompt line: For the record CCS(=O)(=O)N(C)c1cccc(-c2ccnc3c([N+](=O)[O-])cnn23)c1 [Example 32] , what value of inhibition at 10 µM is listed for α2-GABAA receptor (Rattus norvegicus, UniProt P18508+P23576)?
Response line: 89%

Prompt line: Entry CC(C)S(=O)(=O)N(C)c1cccc(-c2ccnc3c([N+](=O)[O-])cnn23)c1 [Example 35] , system α2-GABAA receptor (Rattus norvegicus, UniProt P18508+P23576): what inhibition at 10 µM was measured?
Response line: 91.5%

Prompt line: Short answer please: inhibition at 10 µM, α2-GABAA receptor (Rattus norvegicus, UniProt P18508+P23576), entry C#CCN(c1cccc(-c2ccnc3c([N+](=O)[O-])cnn23)c1)S(C)(=O)=O [Example 28]
Response line: 96.4%

====

System: male CD1 mice
Assay: Predictive sedation-hypnosis test in mice (motor activity, crossings)
Assay type: in vivo
Details: single equimolecular intraperitoneal dose, crossings over 30 min after dosing (first 5 min discarded) versus control animals
MEASUREMENT TYPE: % Inhibition Motor Activity (%)
Give just the number in %; leave the unit off.

Before answering, review these 5 worked examples.
>  <COMPOUND>
C#CCN(c1cccc(-c2ccnc3c([N+](=O)[O-])cnn23)c1)S(=O)(=O)C(C)C

>  <MEASUREMENT TYPE>
% Inhibition Motor Activity

>  <DATA VALUE>
94.31

$$$$
>  <COMPOUND>
O=[N+]([O-])c1cnn2c(-c3cccc(C(F)(F)F)c3)ccnc12

>  <MEASUREMENT TYPE>
% Inhibition Motor Activity

>  <DATA VALUE>
69.08

$$$$
>  <COMPOUND>
O=[N+]([O-])c1cnn2c(-c3cccc(N4CCCS4(=O)=O)c3)ccnc12

>  <MEASUREMENT TYPE>
% Inhibition Motor Activity

>  <DATA VALUE>
64.23

$$$$
>  <COMPOUND>
CC(C)S(=O)(=O)N(C)c1cccc(-c2ccnc3c([N+](=O)[O-])cnn23)c1

>  <MEASUREMENT TYPE>
% Inhibition Motor Activity

>  <DATA VALUE>
91.21

$$$$
>  <COMPOUND>
CC(=O)N(C)c1cccc(-c2ccnc3c([N+](=O)[O-])cnn23)c1

>  <MEASUREMENT TYPE>
% Inhibition Motor Activity

>  <DATA VALUE>
77.25

$$$$

Prompt line: # returns recorded % Inhibition Motor Activity (system: male CD1 mice) for `CCCN(C(C)=O)c1cccc(-c2ccnc3c([N+](=O)[O-])cnn23)c1`
Response line: 61.68

Prompt line: Entry `CCCN(c1cccc(-c2ccnc3c([N+](=O)[O-])cnn23)c1)S(C)(=O)=O` , system male CD1 mice: what % Inhibition Motor Activity was measured?
Response line: 61.06

Prompt line: Test system male CD1 mice; read-out % Inhibition Motor Activity; what value for `CCS(=O)(=O)N(C)c1cccc(-c2ccnc3c([N+](=O)[O-])cnn23)c1` ?
Response line: 91.57

====

Target: α2-GABAA receptor (Rattus norvegicus, UniProt P18508+P23576)
Test: Ligand-binding assay, radiolabeled flumazenil competition, spinal cord membranes
Conditions: compound at 10^−7M
Listed next: entries and their corresponding inhibition at 0.1 µM.
Report only the number, with the unit % understood.

>  <COMPOUND>
C#CCN(c1cccc(-c2ccnc3c([N+](=O)[O-])cnn23)c1)S(=O)(=O)C(C)C [Example 31]

>  <inhibition at 0.1 µM (%)>
4.2

$$$$
>  <COMPOUND>
CCS(=O)(=O)N(C)c1cccc(-c2ccnc3c([N+](=O)[O-])cnn23)c1 [Example 32]

>  <inhibition at 0.1 µM (%)>
21

$$$$
>  <COMPOUND>
CC(C)S(=O)(=O)N(C)c1cccc(-c2ccnc3c([N+](=O)[O-])cnn23)c1 [Example 35]

>  <inhibition at 0.1 µM (%)>
18.9

$$$$
>  <COMPOUND>
C#CCN(c1cccc(-c2ccnc3c([N+](=O)[O-])cnn23)c1)S(C)(=O)=O [Example 28]

>  <inhibition at 0.1 µM (%)>
29

$$$$

Prompt line: Find the recorded inhibition at 0.1 µM belonging to O=[N+]([O-])c1cnn2c(-c3cccc(N4CCCS4(=O)=O)c3)ccnc12 [Example 34] and report it.
Response line: 4.3

====

Below: a set of entries, each annotated with reported pKi.
Biological target: α1-GABAA receptor (Rattus norvegicus, UniProt P62813)
Construct: the cerebellum (tissue that mostly contains α1-GABAA receptor); from tissue; host or cells: rat cerebellum membranes
Test: Ligand-binding assay, radiolabeled flumazenil competition, cerebellum membranes
Conditions: read-out: Affinity for α1-GABAA receptor, Ki
// pKi: -log10(molar conc.)

Examples with answers:
>  <MOL SMILES>
O=[N+]([O-])c1cnn2c(-c3cccc(C(F)(F)F)c3)ccnc12

>  <SYSTEM TESTED>
α1-GABAA receptor (Rattus norvegicus, UniProt P62813)

>  <pKi>
6.21

$$$$
>  <MOL SMILES>
CCCN(C(C)=O)c1cccc(-c2ccnc3c([N+](=O)[O-])cnn23)c1

>  <SYSTEM TESTED>
α1-GABAA receptor (Rattus norvegicus, UniProt P62813)

>  <pKi>
6.96

$$$$

Consider the record given below.
Prompt line: Quick one: pKi of `O=[N+]([O-])c1cnn2c(-c3cccc(N4CCCS4(=O)=O)c3)ccnc12` ?
Response line: 6.78

====

melting point listing for selected compounds.

Example results:
>  <MOL SMILES>
CCN(C(C)=O)c1cccc(-c2ccnc3c([N+](=O)[O-])cnn23)c1

>  <MEASUREMENT TYPE>
melting point

>  <DATA VALUE>
176 to 178 °C

$$$$
>  <MOL SMILES>
O=[N+]([O-])c1cnn2c(-c3cccc(C(F)(F)F)c3)ccnc12

>  <MEASUREMENT TYPE>
melting point

>  <DATA VALUE>
159 to 161 °C

$$$$
>  <MOL SMILES>
CCCCN(c1cccc(-c2ccnc3c([N+](=O)[O-])cnn23)c1)S(=O)(=O)c1ccccc1

>  <MEASUREMENT TYPE>
melting point

>  <DATA VALUE>
159 to 160 °C

$$$$
>  <MOL SMILES>
O=[N+]([O-])c1cnn2c(-c3cccs3)ccnc12

>  <MEASUREMENT TYPE>
melting point

>  <DATA VALUE>
235 to 237 °C

$$$$
>  <MOL SMILES>
O=[N+]([O-])c1cnn2c(-c3cccnc3)ccnc12

>  <MEASUREMENT TYPE>
melting point

>  <DATA VALUE>
302 to 303 °C

$$$$

Prompt line: Endpoint output: melting point of `CCCCN(c1cccc(-c2ccnc3c([N+](=O)[O-])cnn23)c1)S(C)(=O)=O` . Value?
Response line: 153 to 155 °C

Prompt line: Quick one: melting point for `O=[N+]([O-])c1cnn2c(-c3ccncc3)ccnc12` ?
Response line: 241 to 244 °C

Prompt line: Can you look up the measured melting point of `CCCN(c1cccc(-c2ccnc3c([N+](=O)[O-])cnn23)c1)S(=O)(=O)c1ccc(OC)cc1` for me?
Response line: 184 to 185 °C

====

Molecular target: α1-GABAA receptor (Rattus norvegicus)
Construct: the cerebellum (tissue that mostly contains α1-GABAA receptor); from tissue; host or cells: rat cerebellum membranes
Test: Ligand-binding assay, radiolabeled flumazenil competition, cerebellum membranes
In this section we review reported pKi values for a set of molecules.
The value called pKi is obtained by taking minus log10 of the concentration in mol/L.

Worked set:
>  <MOL SMILES>
C#CCN(C(C)=O)c1cccc(-c2ccnc3c([N+](=O)[O-])cnn23)c1

>  <SYSTEM TESTED>
α1-GABAA receptor (Rattus norvegicus)

>  <pKi>
7.41

$$$$
>  <MOL SMILES>
CC(C)S(=O)(=O)N(C)c1cccc(-c2ccnc3c([N+](=O)[O-])cnn23)c1

>  <SYSTEM TESTED>
α1-GABAA receptor (Rattus norvegicus)

>  <pKi>
7.39

$$$$
>  <MOL SMILES>
C#CCN(c1cccc(-c2ccnc3c([N+](=O)[O-])cnn23)c1)S(=O)(=O)C(C)C

>  <SYSTEM TESTED>
α1-GABAA receptor (Rattus norvegicus)

>  <pKi>
7.31

$$$$
>  <MOL SMILES>
CCS(=O)(=O)N(C)c1cccc(-c2ccnc3c([N+](=O)[O-])cnn23)c1

>  <SYSTEM TESTED>
α1-GABAA receptor (Rattus norvegicus)

>  <pKi>
7.51

$$$$

Prompt line: Reported pKi for `CCCN(c1cccc(-c2ccnc3c([N+](=O)[O-])cnn23)c1)S(C)(=O)=O` : what is it?
Response line: 6.99

Prompt line: Reported pKi for `CCN(C(C)=O)c1cccc(-c2ccnc3c([N+](=O)[O-])cnn23)c1` : what is it?
Response line: 7.05

Prompt line: Tell me the measured pKi of `C#CCN(c1cccc(-c2ccnc3c([N+](=O)[O-])cnn23)c1)S(C)(=O)=O` , please.
Response line: 7.93
